Assay: acute toxicity (LD50), procedure of Lichtfield and Wilcoxon
Conditions: mouse, in vivo, po, mice
Hi there, I'd appreciate the recorded LD50 for every entry that follows.

Reference set (6 entries):
COc1ccc(-c2[nH]c(C)c(C(C)=O)c2N)cc1 [Example 14]
> 1000 mg/kg
CC(=O)c1c(C)[nH]c(-c2ccc(C)cc2)c1N [Example 13]
> 1000 mg/kg
CCCC(=O)c1c(CCC)[nH]c(-c2ccccc2)c1N.Cl [Example 34]
~1000 mg/kg
CC(=O)c1c(N(C)C)c(-c2ccccc2)n(Cc2ccc(Cl)cc2)c1C [Example 54]
> 1000 mg/kg
CC(=O)c1c(C)[nH]c(-c2ccccc2)c1N=Cc1ccccc1 [Example 46]
> 1000 mg/kg
CC(=O)c1c(C)[nH]c(-c2ccccc2)c1N.Cl [Example 1]
> 1000 mg/kg

Look up LD50 for the entries below, preserving their order.
1. CC(=O)c1c(N(C)C)c(-c2ccccc2)n(Cc2ccccc2Cl)c1C [Example 53]
2. CC(=O)c1c(C)[nH]c(-c2ccccc2)c1N=Cc1ccc(Cl)cc1 [Example 45]
3. CC(=O)c1c(N)c(-c2ccccc2)n(C)c1C [Example 49b]
4. CCOC(=O)c1c(N)c[nH]c1C.Cl [Example 19]

Marked response:
1: > 1000 mg/kg; 2: > 1000 mg/kg; 3: > 1000 mg/kg; 4: 500 mg/kg
